- Test system: diaphorase
- measurement-notes: fluorescently labeled diaphorase binding to peptide array with or without excess FAD
- assay-context: ratio of binding without FAD to binding with FAD, 10 micromolar diaphorase
endpoint-label: 10 microM noFAD/FAD

RLQYLFKSDGSG [array peptide with C-terminal GSG linker] = 2.103

1. RYAYFQHLGGSG [array peptide with C-terminal GSG linker]
2. FGKLYQLYNDGSG [array peptide with C-terminal GSG linker]
## Task Select the item with the higher value of 10 microM noFAD/FAD from the options 1 and 2 listed. Please identify the chosen entry by its label.
## Result 1

* * *

- Test system: diaphorase
- measurement-notes: fluorescently labeled diaphorase binding to peptide array with or without excess FAD
- assay-context: ratio of binding without FAD to binding with FAD, 1 micromolar diaphorase
- Experimental: Measurements were performed in which diaphorase was bound to an array of about 126,000 unique sequences. The sequences were chosen simply to cover sequence space. 16 of the natural 20 amino acids were used to make up these sequences with C, I, M and T omitted. The diaphorase was fluorescently labeled and each peptide sequence feature was scanned and fluorescence recorded on the array. Diaphorase bound tightly to some peptides and not at all to others. […]
endpoint-label: 1 microM noFAD/FAD

For orientation, consider the following solved cases.
ELFGALFKGGSG [array peptide with C-terminal GSG linker] = 0.6123
RNWYGGSG [array peptide with C-terminal GSG linker] = 2.663
YRFAQYKGQKDGSG [array peptide with C-terminal GSG linker] = 2.785
RYPWNKLYKFDGSG [array peptide with C-terminal GSG linker] = 2.795
RQYQKHSYAKFSGSG [array peptide with C-terminal GSG linker] = 2.747

A. YNRNAKSSGGSG [array peptide with C-terminal GSG linker]
B. AQVAVDGFYVDGSG [array peptide with C-terminal GSG linker]
C. YSVDYWYQVDGSG [array peptide with C-terminal GSG linker]
## Task Order field: 1 microM noFAD/FAD | Direction: descending (largest first) Write out the labels following the order that was asked for.
## Result A, B, C

I. DLFQLVFSGSG [array peptide with C-terminal GSG linker]
II. YRFPNAQSPGGSG [array peptide with C-terminal GSG linker]
III. VERASYNLDGSG [array peptide with C-terminal GSG linker]
## Task # ascending order, key=1 microM noFAD/FAD Lab note: final answer is the ordered label list.
## Result III, I, II
(III: 0.3391, I: 0.6409, II: 2.63)
